Origin of the recorded values: patent US20220289794A1

# System: Klebsiella pneumoniae (KPC, ATCC BAA-1705)
# test: microbe, parasite or virus in culture
# conditionsUsed: ATCCBAA1705, 24 h, read-out: Klebsiella pneumoniae (ATCC BAA-1705) MIC, Table 28, IFX-031, antibiotics alone and PHY-MIX (1:1 w/w)
assayReadout: MIC (µg/mL)
# value in µg/mL; strip the unit string

Form field - read-out: MIC; system: Klebsiella pneumoniae (KPC, ATCC BAA-1705); submitted item: C[C@H]1COc2c(N3CCN(C)CC3)c(F)cc3c(=O)c(C(=O)O)cn1c23
32

Form field - read-out: MIC; system: Klebsiella pneumoniae (KPC, ATCC BAA-1705); submitted item: NC[C@H]1O[C@H](O[C@H]2[C@H](O)[C@@H](O[C@H]3O[C@H](CO)[C@@H](O)[C@H](N)[C@H]3O)[C@H](N)C[C@@H]2N)[C@H](O)[C@@H](O)[C@@H]1O
64
